Data credit: patent US20240228463A1

Biological target: hNaV1.7 (Homo sapiens)
Construct: expressed in transfected cells
Sequence (Q15858 1-1977 isoform Q15858-3): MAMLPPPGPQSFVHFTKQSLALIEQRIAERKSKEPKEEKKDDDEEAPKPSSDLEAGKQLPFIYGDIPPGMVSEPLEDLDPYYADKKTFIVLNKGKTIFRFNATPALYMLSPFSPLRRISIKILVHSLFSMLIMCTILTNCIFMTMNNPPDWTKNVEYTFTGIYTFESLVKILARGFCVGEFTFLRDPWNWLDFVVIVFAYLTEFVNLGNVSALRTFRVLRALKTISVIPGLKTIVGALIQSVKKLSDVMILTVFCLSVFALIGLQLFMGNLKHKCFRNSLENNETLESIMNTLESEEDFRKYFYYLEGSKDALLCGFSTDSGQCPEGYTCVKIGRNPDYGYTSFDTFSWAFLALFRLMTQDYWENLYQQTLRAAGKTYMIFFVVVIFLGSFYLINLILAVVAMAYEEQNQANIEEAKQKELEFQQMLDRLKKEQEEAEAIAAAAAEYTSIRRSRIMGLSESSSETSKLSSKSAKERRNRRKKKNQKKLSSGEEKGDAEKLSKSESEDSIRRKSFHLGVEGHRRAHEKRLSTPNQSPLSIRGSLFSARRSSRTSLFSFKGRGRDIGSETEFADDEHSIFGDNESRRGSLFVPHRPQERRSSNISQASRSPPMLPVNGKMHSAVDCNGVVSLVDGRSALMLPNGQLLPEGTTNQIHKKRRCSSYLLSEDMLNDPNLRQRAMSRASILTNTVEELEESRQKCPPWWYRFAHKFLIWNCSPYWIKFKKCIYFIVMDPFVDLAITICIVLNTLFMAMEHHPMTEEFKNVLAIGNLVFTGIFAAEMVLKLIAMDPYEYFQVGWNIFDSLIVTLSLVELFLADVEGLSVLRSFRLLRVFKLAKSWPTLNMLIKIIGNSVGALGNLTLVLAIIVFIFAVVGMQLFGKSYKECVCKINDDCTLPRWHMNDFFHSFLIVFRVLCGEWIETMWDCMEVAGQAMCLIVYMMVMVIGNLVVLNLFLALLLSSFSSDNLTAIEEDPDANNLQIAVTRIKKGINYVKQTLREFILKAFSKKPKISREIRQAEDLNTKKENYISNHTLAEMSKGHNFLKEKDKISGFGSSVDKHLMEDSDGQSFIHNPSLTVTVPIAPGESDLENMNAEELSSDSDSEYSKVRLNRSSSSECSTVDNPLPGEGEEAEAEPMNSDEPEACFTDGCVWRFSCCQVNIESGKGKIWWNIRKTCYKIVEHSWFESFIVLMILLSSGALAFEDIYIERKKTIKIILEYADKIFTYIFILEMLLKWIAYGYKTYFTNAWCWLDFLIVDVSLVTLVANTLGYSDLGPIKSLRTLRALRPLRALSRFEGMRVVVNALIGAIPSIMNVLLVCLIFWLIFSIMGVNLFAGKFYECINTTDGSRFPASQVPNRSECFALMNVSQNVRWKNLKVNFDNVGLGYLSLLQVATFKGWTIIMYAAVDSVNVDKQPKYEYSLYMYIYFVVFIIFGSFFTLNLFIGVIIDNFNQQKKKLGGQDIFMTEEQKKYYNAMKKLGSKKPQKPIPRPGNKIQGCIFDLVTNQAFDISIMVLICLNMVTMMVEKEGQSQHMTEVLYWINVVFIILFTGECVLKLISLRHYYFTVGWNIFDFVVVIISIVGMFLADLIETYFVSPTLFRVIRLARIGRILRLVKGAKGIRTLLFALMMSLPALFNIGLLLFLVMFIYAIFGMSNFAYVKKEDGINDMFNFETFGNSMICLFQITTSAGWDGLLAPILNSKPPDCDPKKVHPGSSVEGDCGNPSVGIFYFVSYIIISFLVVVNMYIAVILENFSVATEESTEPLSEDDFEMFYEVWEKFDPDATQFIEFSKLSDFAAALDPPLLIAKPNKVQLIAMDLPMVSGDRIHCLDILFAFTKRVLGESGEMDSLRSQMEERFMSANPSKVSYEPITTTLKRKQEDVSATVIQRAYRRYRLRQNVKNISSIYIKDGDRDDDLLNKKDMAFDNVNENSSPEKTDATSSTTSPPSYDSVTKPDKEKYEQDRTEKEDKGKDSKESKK
Assay: Patch voltage clamp electrophysiology (EP), Syncropatch 384PE, Nav1.7 in CHO cells;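 further: Nav1.7 stably expressed from cDNA in CHO cells, holding potential of −50 mV kept for the entire experiment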
Assay type: cell-based
Conditions: holding potential −50 mV, inhibition based on 7.5 min compound incubation, read-out: hNaV1.7 EP_SP
Where a name gives a salt, the structure may show the parent alone.
The molecules listed here are annotated with their pIC50.
The meaning of pIC50 here: minus log10 of the concentration in molar units.

Consider the following illustrative entries.
Task: Need pIC50, item O=C(NS(=O)(=O)N1CC(O[C@@H]2CCCNC2)C1)c1cc(Cl)c(OCC2CCCC2)cc1F (single isomer, unassigned) [Example 49]
Result: 6.07

Task: Fill in the blank: the reported pIC50 of O=C(NS(=O)(=O)N1CCN2CCNCC2C1)c1cc(Cl)c(OCC2CCCC2)cc1F (centres unmarked) is ____.
Result: 6.96

Task: Which pIC50 reading was recorded for the molecule NC(=O)[C@@H]1Cc2cc(S(=O)(=O)NC(=O)c3cc(Cl)c(OCC4CCCC4)cc3F)ccc2O1 ?
Result: 6.23

Task: So what's the measured pIC50 for this one? O=C(NS(=O)(=O)c1ccc(Oc2ccc(Cl)cc2)cc1)c1cc(Cl)c(OCC2CCCC2)cc1F
Result: 6.31

Task: Looking for the measured pIC50 of O=C(NS(=O)(=O)c1ccc2c(c1)CCCC2)c1cc(Cl)c(OCC2CCCC2)cc1F , can you help?
Result: 6.28

Task: Returns the measured pIC50 for the input molecule. Input: O=C(NS(=O)(=O)N1CC(OC2CCNCC2)C1)c1cc(Cl)c(OCC2CCCC2)cc1F
Result: 6.59

Task: What does the data say about its pIC50? Entry: CN1CC[C@H](OC2CCN(S(=O)(=O)NC(=O)c3cc(Cl)c(OCC4CCCC4)cc3F)CC2)C1 (single isomer, unassigned) [Example 326]
Result: 6.64

Task: Param item = O=C(NS(=O)(=O)N1CCC(O[C@@H]2CCNC2)CC1)c1cc(C2CC2)c(OCC2CCCC2)cc1F (single isomer, unassigned) [Example 29, 2,2,2-trifluoroacetate] ; retrieve measured pIC50.
Result: 7.57

Task: For the molecule shown here, O=C(NS(=O)(=O)c1ccc2c(c1)CCC2)c1cc(Cl)c(OCC2CCCC2)cc1F , give the reported pIC50.
Result: 6.57

Task: Given the entry O=C(NS(=O)(=O)c1ccc2c(c1)CCO2)c1cc(Cl)c(OCC2CCCC2)cc1F , report its measured pIC50.
Result: 6.59

---
Task: Query (molecule): CN1CC[C@H](OC2CCN(S(=O)(=O)NC(=O)c3cc(Cl)c(OCC4CCCC4)cc3F)CC2)C1 (single isomer, unassigned) [Example 38] ; field requested: pIC50
Result: 7.41

Task: Which measured pIC50 value corresponds to CNC1CN(S(=O)(=O)NC(=O)c2cc(Cl)c(OCC3CCCC3)cc2F)C1 [Example 226, formate] ?
Result: 6.12

Task: Entry C[C@H]1Cc2ccccc2N(S(=O)(=O)NC(=O)c2cc(Cl)c(OCC3CCCC3)cc2F)C1 (single isomer, unassigned) : reported pIC50 = ?
Result: 6.62

Task: // query pIC50 value for entry Cc1cc(C)cc(COc2ccc(S(=O)(=O)NC(=O)c3cc(Cl)c(OCC4CCCC4)cc3F)cc2)c1
Result: 6.59

Task: For CN(C)[C@H]1CCCC[C@@H]1Nc1cc(F)c(S(=O)(=O)Nc2ccc(OCCCc3ccc(C(F)(F)F)cc3)cn2)cc1Cl , what is its reported pIC50?
Result: 6.66

Task: For CN1CCC(S(=O)(=O)NC(=O)c2cc(Cl)c(OCC3CCCC3)cc2F)C1 (centres unmarked) , what is its reported pIC50?
Result: 6.33

Task: Record request: pIC50 value, item COc1ccc2nc(NS(=O)(=O)c3ccc(N[C@H]4CCCC[C@@H]4N(C)C)cc3F)sc2c1
Result: 6.43
